- Test system: HepG2
- assayDetails: GSK_TCMDC: Percent inhibition of human HepG2 cell line. Test compounds present at 10uM.
- Assay type: functional
Each entry below carries its reported Inhibition.

[
  {
    "molecule": "CC(=O)Nc1ccc(CN2CCC(NC(=O)c3ccc(-c4cccc(F)c4)s3)CC2)cc1.O=C(O)C(F)(F)F",
    "unitName": "%",
    "Inhibition": 6
  },
  {
    "molecule": "COc1cc2c(cc1S(=O)(=O)c1ccc(NC(=O)c3cccc(C(F)(F)F)c3)cc1)CCN(C)CC2",
    "unitName": "%",
    "Inhibition": 18
  },
  {
    "molecule": "COc1ccc2nccc([C@@H](O)CN3CCC(NS(=O)(=O)c4cc(Br)c(Br)s4)CC3)c2c1",
    "unitName": "%",
    "Inhibition": 14
  },
  {
    "molecule": "c1ccc(CCNc2ncnc3c2[nH]c2ccccc23)cc1",
    "unitName": "%",
    "Inhibition": 50
  },
  {
    "molecule": "Cl.NC(=O)c1cccc(Nc2nccc(Nc3ccc(Oc4cccc5ccccc45)cc3)n2)c1",
    "unitName": "%",
    "Inhibition": 0
  },
  {
    "molecule": "Cc1[nH]c(C)c(-c2cc3ccccc3o2)c(=O)c1Cl",
    "unitName": "%",
    "Inhibition": 1
  },
  {
    "molecule": "CCCC(=O)NC(c1ccc(C)cc1)c1ccc2cccnc2c1O (centres undefined)",
    "unitName": "%",
    "Inhibition": 52
  },
  {
    "molecule": "Cc1ccc(Cl)cc1N1CCN(CCCNC(=O)C2CCN(c3nc4ccccc4[nH]3)CC2)CC1",
    "unitName": "%",
    "Inhibition": 41
  },
  {
    "molecule": "CC(C)CCN1CCCN(Cc2ccc(C(=O)Nc3ccc(C(C)(C)C)cc3)cc2)CC1.O=C(O)C(F)(F)F",
    "unitName": "%",
    "Inhibition": 49
  }
]

---

- System: HepG2
- assayDetails: GSK_TCMDC: Percent inhibition of human HepG2 cell line. Test compounds present at 10uM.
- Format: functional
recordedEndpoint: Inhibition (%)

[
  {
    "compound": "COc1cncc(/C=C/c2cncc(C(=O)NCCc3ccc(Cl)cc3Cl)c2)c1",
    "valueReported": 0
  },
  {
    "compound": "COc1cc(SC)ccc1C(=O)N1CC(C)CC(C)C1 (stereo not drawn)",
    "valueReported": 5
  },
  {
    "compound": "O=C(/C=C/c1ccc(Cl)c(Cl)c1)NCCCCCN1CCC(NC(=O)Nc2ccc(F)cc2F)CC1",
    "valueReported": 14
  },
  {
    "compound": "O=C([C@H]1CCCCN1c1ccc([N+](=O)[O-])c2ccccc12)N1CCN(c2ncccn2)CC1",
    "valueReported": 50
  },
  {
    "compound": "Cc1ccc(C(=O)NC2CC2)cc1-c1ccc2c(cnn2S(=O)(=O)c2ccc(F)cc2)c1",
    "valueReported": 7
  },
  {
    "compound": "CC(C)(C)c1ccc(NC(=O)c2cccc(CN3CCCN(Cc4ccsc4)CC3)c2)cc1.O=C(O)C(F)(F)F",
    "valueReported": 33
  },
  {
    "compound": "COc1ccc(-c2ccc(NC(=O)c3cccc(Cl)c3)c(F)c2)cc1CNC(C)C.O=C(O)C(F)(F)F",
    "valueReported": 19
  },
  {
    "compound": "O=C(/C=C/c1ccc(Cl)c(Cl)c1)NCCCCCN1CCCC(CNC(=O)Nc2ccc(C(F)(F)F)cc2)C1 (stereo not drawn)",
    "valueReported": 27
  },
  {
    "compound": "CO/C(=C\\C=C\\c1cc2cc(Cl)c(Cl)cc2[nH]1)C(=O)NCCCN1CCN(Cc2ccccc2)CC1",
    "valueReported": 45
  },
  {
    "compound": "COc1cccc(-c2nn(C)c3sc(C(=O)Nc4cccnc4)cc23)c1",
    "valueReported": 1
  },
  {
    "compound": "CC(CCc1ccccc1)NCC(O)c1ccc2c(c1)S(=O)(=O)c1ccccc1N2 (stereo not drawn)",
    "valueReported": 17
  },
  {
    "compound": "CN1CCN(CCCNCc2cccc(-c3ccc(CNCCc4ccccc4)cc3)c2)CC1.O=C(O)C(F)(F)F",
    "valueReported": 36
  },
  {
    "compound": "CCOc1ccc(-c2nc(NC(=O)Cc3cccc(OC)c3)sc2C)cc1",
    "valueReported": 15
  },
  {
    "compound": "CCc1cn2c3c(cc(C(=O)N[C@@H](Cc4ccccc4)[C@H](O)CNC4CCCCC4)cc13)N(C)S(=O)(=O)C2.O=CO",
    "valueReported": 20
  },
  {
    "compound": "CC(Cc1ccc(OCCN2CCN(c3cccc(C(F)(F)F)c3)CC2)cc1)NCC(O)c1cccc(C(F)(F)F)c1.Cl (stereo not drawn)",
    "valueReported": 11
  },
  {
    "compound": "Cc1c(S(=O)(=O)Nc2ccc3ccn(CCN(C)C)c3c2)sc2ccc(Cl)cc12.Cl",
    "valueReported": 15
  },
  {
    "compound": "CN1CCN(c2cccc(NC(=O)c3ccc(-c4ccc(C#N)cc4)cc3)c2)CC1",
    "valueReported": 31
  },
  {
    "compound": "O=C(Nc1ccc2nc3n(c(=O)c2c1)CCCCC3)C(=O)N1CCN(c2ccc(F)cc2)CC1",
    "valueReported": 10
  }
]
